Molecular target: Tyrosine-protein kinase TXK (Homo sapiens)
Sequence (whole entry): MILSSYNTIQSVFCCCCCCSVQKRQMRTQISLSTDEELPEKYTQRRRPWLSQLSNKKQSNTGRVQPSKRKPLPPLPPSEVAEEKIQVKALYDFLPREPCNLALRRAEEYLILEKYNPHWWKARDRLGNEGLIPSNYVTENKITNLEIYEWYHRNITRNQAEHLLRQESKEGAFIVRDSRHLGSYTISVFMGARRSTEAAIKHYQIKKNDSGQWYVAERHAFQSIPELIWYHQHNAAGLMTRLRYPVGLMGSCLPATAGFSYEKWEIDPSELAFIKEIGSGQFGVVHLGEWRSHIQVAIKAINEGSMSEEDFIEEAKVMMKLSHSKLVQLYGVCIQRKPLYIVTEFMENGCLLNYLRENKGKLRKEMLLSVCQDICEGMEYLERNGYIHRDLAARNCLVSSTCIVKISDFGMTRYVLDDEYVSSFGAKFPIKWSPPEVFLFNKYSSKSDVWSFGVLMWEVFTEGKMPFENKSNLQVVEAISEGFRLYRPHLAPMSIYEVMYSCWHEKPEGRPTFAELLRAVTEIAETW
Conditions: at 10 µM
Classify by residual activity. Ranges: low value (below 60%), medium value (60% to below 70%), high value (70% or more)

Field: example entries. Status: answers known.
# Chemical string, Assigned category
rows = [
    ("O=c1cc(-c2cccc3c2Sc2ccccc2S3)oc(N2CCOCC2)c1", "high value"),
    ("Cc1cccc(-c2[nH]c(C(C)(C)C)nc2-c2ccc3c(c2)OCO3)n1", "high value"),
    ("Oc1n[nH]c2nnc(-c3c(-c4ccccc4)nn4ccccc34)cc12", "medium value"),
    ("CC(C)n1cnc2c(NCc3ccccc3)nc(NCCCO)nc21", "high value"),
    ("Oc1ccc(-c2nc(-c3ccc(F)cc3)c(-c3ccncc3)[nH]2)cc1", "low value"),
    ("CN(C)CCCn1cc(C2=C(c3c[nH]c4ccccc34)C(=O)NC2=O)c2ccccc21", "high value"),
    ("N#CCCc1ccc2c(c1)-c1[nH]c3ccc([N+](=O)[O-])cc3c1CC(=O)N2", "low value"),
    ("CC[n+]1c(/C=C/N(C)c2ccccc2)n(-c2ccccc2)c2ccc(-c3nc4ccccc4s3)cc21", "low value"),
]

[ask] Category lookup for the molecule "COc1cc2ncnc(Nc3ccc(Oc4ccccc4)cc3)c2cc1OC"
[reply] low value

[ask] Which class does "CCOc1cc2ncnc(Nc3cccc(Br)c3)c2cc1OCC" fall in?
[reply] low value

[ask] Given "N#C/C(=C(\N)Sc1ccc(N)cc1)c1ccccc1C(F)(F)F" , name the class its residual activity places it in.
[reply] high value

[ask] Hi, small favor: classify "CO[C@H]1C[C@@H]2CC[C@@H](C)[C@@](O)(O2)C(=O)C(=O)N2CCCC[C@H]2C(=O)O[C@H]([C@H](C)C[C@@H]2CC[C@@H](O)[C@H](OC)C2)CC(=O)[C@H](C)/C=C(\C)[C@@H](O)[C@@H](OC)C(=O)[C@H](C)C[C@H](C)/C=C/C=C/C=C/1C" by its residual activity when you get a moment.
[reply] high value

[ask] Please report the category associated with "O=C1Nc2cc(Br)ccc2/C1=C1/Nc2ccccc2/C1=N\O" , nothing else.
[reply] low value

[ask] Tag the class for "c1ccc(-c2n[nH]cc2-c2ccnc3ccccc23)nc1"
[reply] medium value

[ask] Category of "N#CC(C#N)=C(N)/C(C#N)=C/c1ccc(O)cc1" :
[reply] medium value
